# target-or-test-system: serotonin S3 (5-HT3) receptor (Rattus norvegicus, UniProt P35563)
# Sequence (P35563 24-483): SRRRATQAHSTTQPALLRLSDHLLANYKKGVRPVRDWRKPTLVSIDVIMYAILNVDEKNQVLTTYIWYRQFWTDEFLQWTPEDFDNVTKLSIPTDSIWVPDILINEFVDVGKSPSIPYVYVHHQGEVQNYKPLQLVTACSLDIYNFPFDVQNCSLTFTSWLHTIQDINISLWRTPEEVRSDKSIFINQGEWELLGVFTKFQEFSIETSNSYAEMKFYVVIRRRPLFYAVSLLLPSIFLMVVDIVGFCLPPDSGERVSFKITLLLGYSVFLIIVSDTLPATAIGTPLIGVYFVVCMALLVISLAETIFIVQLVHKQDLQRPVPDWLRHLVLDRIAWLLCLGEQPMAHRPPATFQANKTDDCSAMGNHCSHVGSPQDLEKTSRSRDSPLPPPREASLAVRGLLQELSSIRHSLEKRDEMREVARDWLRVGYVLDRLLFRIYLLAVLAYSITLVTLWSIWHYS
# experiment-summary: Serotonin S3 receptor-binding (in vitro receptor binding assay, [3H] quipazine)
# Design: Crude synaptosome fractions prepared from rat brain were used as receptor samples; from tissue; host or cells: rat brain, crude synaptosome fraction
# setup-conditions: crude synaptosome fractions from rat brain, [3H] quipazine (S3); read-out: IC50 S3
measured-property: pIC50
Give bare numbers, as −log10 of the molar value.

Prompt line: Find the recorded pIC50 belonging to CCN1CCN(C)C[C@@H](NC(=O)c2cc(Br)c(NC)nc2OC)C1.O=C(O)/C=C/C(=O)O.O=C(O)/C=C/C(=O)O [Example 1, Difumarate] and report it.
Response line: 9.00
